- TARGET OR TEST SYSTEM: human GLP-1R (Homo sapiens, UniProt P43220)
- Sequence (P43220 24-463): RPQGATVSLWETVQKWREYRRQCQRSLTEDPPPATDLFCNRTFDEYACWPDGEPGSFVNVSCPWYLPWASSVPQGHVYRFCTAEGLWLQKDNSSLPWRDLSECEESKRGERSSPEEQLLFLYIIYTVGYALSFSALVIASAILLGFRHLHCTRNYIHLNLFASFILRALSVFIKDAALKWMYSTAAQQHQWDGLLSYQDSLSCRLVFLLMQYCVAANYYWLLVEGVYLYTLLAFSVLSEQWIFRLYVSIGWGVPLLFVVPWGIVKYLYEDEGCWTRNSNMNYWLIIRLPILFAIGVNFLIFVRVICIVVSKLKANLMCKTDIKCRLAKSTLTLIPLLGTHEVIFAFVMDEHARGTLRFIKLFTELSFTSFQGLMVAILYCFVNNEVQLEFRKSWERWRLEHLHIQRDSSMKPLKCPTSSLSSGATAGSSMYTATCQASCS
- TEST NAME: Human GLP-1 Receptor HEK293 cell cAMP assay, 581 fmol/mg GLP-1R expression density
- Assay type: cell-based
- Parameters: expressed in transfected cells; host or cells: HEK293 clonal cell line
- RECORDED CONDITIONS: HEK293 cell line with 581 fmol/mg expression density of GLP-1R; geometric mean; read-out: EC50 nM (SEM, n), intracellular cAMP response, relative EC50
METRIC: EC50 (nM)

Sample answers from the record:
[[record]]
molecule = "O=C(O)c1ccc2nc(Cc3ccc4cc3OCCCc3cc(-n5ccnc5)ccc3COc3cccc-4n3)n(C[C@@H]3CCO3)c2c1"
measurement_units = "nM"
recorded_value = 21.3

[[record]]
molecule = "COc1cc(C(=O)O)cc2c1nc(Cc1cc(C)c3cc1OCCCc1cc(F)ccc1COc1cccc-3n1)n2C[C@@H]1CCO1"
measurement_units = "nM"
recorded_value = 2.86

[[record]]
molecule = "COCCOc1cc(C(=O)O)cc2c1nc(Cc1cc(F)c3cc1CCOCc1cc(ccc1C#N)COc1cccc-3n1)n2C[C@@H]1CCO1"
measurement_units = "nM"
recorded_value = 11.2

[[record]]
molecule = "O=C(O)c1ccc2nc(Cc3ccc4cc3OCCCc3cc(-n5cnc(F)c5)ccc3COc3cccc-4n3)n(C[C@@H]3CCO3)c2c1"
measurement_units = "nM"
recorded_value = 13.4

[[record]]
molecule = "COCCOc1cc(C(=O)O)cc2c1nc(Cc1ccc3cc1COCCc1cc(C#N)ccc1COc1cccc-3n1)n2C[C@@H]1CCO1"
measurement_units = "nM"
recorded_value = 2.13


[I] N#Cc1ccc2c(c1)CCCOc1cc(ccc1Cc1nc3ccc(-c4nnn[nH]4)cc3n1C[C@@H]1CCO1)-c1cccc(n1)OC2
[II] O=C(O)c1cc(OCCO)c2nc(Cc3ccc4cc3COCCc3cc(Cl)ccc3COc3cccc-4n3)n(C[C@@H]3CCO3)c2c1
So which one has the bigger EC50 here, I or II ? // respond with label for picked entry
I
(I: 184 nM, II: 8.94 nM)

[a] COCCOc1cc(C(=O)O)cc2c1nc(Cc1ccc3cc1COCCc1nc(ccc1C#N)COc1cccc-3n1)n2C[C@@H]1CCO1
[b] COCCOc1cc(C(=O)O)cc2c1nc(Cc1cc(F)c3cc1COCc1cc(Cl)ccc1COc1cccc-3n1)n2C[C@@H]1CCO1
[c] COc1cc(-c2nnn[nH]2)cc2c1nc(Cc1ccc3cc1OCCCc1cc(C#N)ccc1COc1cccc-3n1)n2C[C@@H]1CCO1
With regard to EC50, arrange the entries in ascending order, please. Would you mind listing the labels in the order asked for?
b, a, c

* * *

- TARGET OR TEST SYSTEM: human GLP-1R (Homo sapiens)
- TEST NAME: Human GLP-1 Receptor HEK293 cell cAMP assay, 581 fmol/mg GLP-1R expression density
- Assay type: cell-based
- Set-up: expressed in transfected cells; host or cells: HEK293 clonal cell line
- RECORDED CONDITIONS: HEK293 cell line with 581 fmol/mg expression density of GLP-1R; percent of maximal response to GLP-1(7-36)NH2; arithmetic mean; read-out: Emax % (SEM, n), intracellular cAMP response
METRIC: Emax (%)

Sample answers from the record:
[[record]]
compound = "N#Cc1ccc2c(c1)CCCOc1cc(ccc1Cc1nc3c(OCCNCC(F)(F)F)cc(C(=O)O)cc3n1C[C@@H]1CCO1)-c1cccc(n1)OC2 [Example 54]"
metric = "Emax"
recorded_value = 49.5

[[record]]
compound = "COc1cc(C(=O)O)cc2c1nc(Cc1cc(C)c3cc1OCCCc1cc(C#N)ccc1COc1cccc-3n1)n2C[C@@H]1CCO1 [Example 9]"
metric = "Emax"
recorded_value = 118

[[record]]
compound = "COc1cc(C(=O)O)cc2c1nc(Cc1cc(F)c3cc1CCOCc1cc(C#N)ccc1COc1cccc-3n1)n2C[C@@H]1CCO1 [Example 44]"
metric = "Emax"
recorded_value = 112

[[record]]
compound = "O=C(O)c1ccc2nc(Cc3ccc4cc3OCCCc3cc(CO)ccc3COc3cccc-4n3)n(C[C@@H]3CCO3)c2c1 [Example 25]"
metric = "Emax"
recorded_value = 98.3


[a] O=C(O)c1cc(OCCO)c2nc(Cc3ccc4cc3COCCc3cc(Cl)ccc3COc3cccc-4n3)n(C[C@@H]3CCO3)c2c1 [Example 55]
[b] Cn1ccc(-c2ccc3c(c2)CCCOc2cc(ccc2Cc2nc4ccc(C(=O)O)cc4n2C[C@@H]2CCO2)-c2cccc(n2)OC3)cc1=O [Example 79]
Hi! Which is lower in terms of Emax, the first one a or the second one b ? // respond with label for picked entry
b

* * *

- TARGET OR TEST SYSTEM: human GLP-1R (Homo sapiens, UniProt P43220)
- TEST NAME: Human GLP-1 Receptor HEK293 cell cAMP assay, 581 fmol/mg GLP-1R expression density
- Assay type: cell-based
- Set-up: expressed in transfected cells; host or cells: HEK293 clonal cell line
- RECORDED CONDITIONS: HEK293 cell line with 581 fmol/mg expression density of GLP-1R; percent of maximal response to GLP-1(7-36)NH2; arithmetic mean; read-out: Emax % (SEM, n), intracellular cAMP response
METRIC: Emax (%)

[[record]]
molecule = "COCCOc1cc(C(=O)O)cc2c1nc(Cc1cc(F)c3cc1CCOCc1cc(ccc1Cl)COc1cccc-3n1)n2C[C@@H]1CCO1"
target_or_test_system = "human GLP-1R (Homo sapiens, UniProt P43220)"
metric = "Emax"
recorded_value = 110

[[record]]
molecule = "COc1cc(C(=O)O)cc2c1nc(Cc1cc(C)c3cc1OCCCc1cc(C#N)ccc1COc1cccc-3c1)n2C[C@@H]1CCO1"
target_or_test_system = "human GLP-1R (Homo sapiens, UniProt P43220)"
metric = "Emax"
recorded_value = 105

[[record]]
molecule = "N#Cc1ccc2c(c1)CCOCc1cc(ccc1Cc1nc3ccc(C(=O)O)cc3n1C[C@@H]1CCO1)-c1cccc(n1)OC2"
target_or_test_system = "human GLP-1R (Homo sapiens, UniProt P43220)"
metric = "Emax"
recorded_value = 103


* * *

- TARGET OR TEST SYSTEM: human GLP-1R (Homo sapiens, UniProt P43220)
- TEST NAME: Human GLP-1 Receptor HEK293 cell cAMP assay, 104 fmol/mg GLP-1R expression density
- Assay type: cell-based
- Set-up: expressed in transfected cells; host or cells: HEK293 clonal cell line
- RECORDED CONDITIONS: HEK293 cell line with 104 fmol/mg expression density of GLP-1R; geometric mean; read-out: EC50 nM (SEM, n), intracellular cAMP response, relative EC50
Where a name gives a salt, the structure may show the parent alone.
METRIC: EC50 (nM)

[[record]]
molecule = "COc1cc(C(=O)O)cc2c1nc(Cc1cc(F)c3cc1COCc1cc(C#N)ccc1COc1cccc-3n1)n2C[C@@H]1CCO1"
measurement_units = "nM"
recorded_value = 38.4

[[record]]
molecule = "COc1cc(C(=O)O)cc2c1nc(Cc1ccc3cc1OCCCc1cc(C#N)ccc1COc1cccc-3n1)n2C[C@@H]1CCO1"
measurement_units = "nM"
recorded_value = 22.3

[[record]]
molecule = "O=C(O)c1ccc2nc(Cc3ccc4cc3OCCCc3cc(-c5ccc(=O)[nH]c5)ccc3COc3cccc-4n3)n(C[C@@H]3CCO3)c2c1"
measurement_units = "nM"
recorded_value = 303

[[record]]
molecule = "N#Cc1ccc2c(c1)CCCOc1cc(ccc1Cc1nc3c(F)cc(C(=O)O)cc3n1C[C@@H]1CCO1)-c1cccc(n1)OC2"
measurement_units = "nM"
recorded_value = 96.8

[[record]]
molecule = "COc1cc(C(=O)O)cc2c1nc(Cc1cc(F)c3cc1OCCCc1cc(C#N)cnc1COc1cccc-3n1)n2C[C@@H]1CCO1 [Example 43, diformate salt]"
measurement_units = "nM"
recorded_value = 194

[[record]]
molecule = "COc1cc(C(=O)O)cc2c1nc(Cc1ccc3cc1COCCc1cc(C#N)ccc1COc1ccnc-3n1)n2C[C@@H]1CCO1"
measurement_units = "nM"
recorded_value = 152

[[record]]
molecule = "N#Cc1ccc2c(c1)CCCOc1cc(c(F)cc1Cc1nc3ccc(C(=O)O)cc3n1C[C@@H]1CCO1)-c1cccc(n1)OC2"
measurement_units = "nM"
recorded_value = 59.7

[[record]]
molecule = "COCCOc1cc(C(=O)O)cc2c1nc(Cc1ccc3cc1COCCc1nc(ccc1C#N)COc1cccc-3n1)n2C[C@@H]1CCO1"
measurement_units = "nM"
recorded_value = 24.6


[I] N#Cc1ccc2c(c1)CCOc1cc(c(F)cc1Cc1nc3ccc(C(=O)O)cc3n1C[C@@H]1CCO1)-c1cccc(n1)OC2
[II] O=C(O)c1ccc2nc(Cc3ccc4cc3OCCCc3cc(-c5cnn(C6COC6)c5)ccc3COc3cccc-4n3)n(C[C@@H]3CCO3)c2c1
Hi! Which is lower in terms of EC50, the first one I or the second one II ? // respond with label for picked entry
I
(I: 226 nM, II: 359 nM)
